The reported numbers originate from PubChem BioAssay (NCI).

test system: BT-549 breast; test: NCI tumour cell line growth inhibition, 48 h
Let's look at some molecules and their measured log10 of TGI.
On a log10 scale: recorded TGI, unit µM.

Example entries begin here.
- MOLECULE: "CC(=O)O/C=C\\OC1CCCC1(c1ccccc1)c1ccccc1 (stereo not drawn)"
  SYSTEM TESTED: "BT-549 breast"
  MEASUREMENT: 0.67
- MOLECULE: "Oc1ccc(/C=C\\c2nnc(/C=C\\c3ccc(O)c(O)c3)s2)cc1O"
  SYSTEM TESTED: "BT-549 breast"
  MEASUREMENT: 1.61
- MOLECULE: "C=C1C(=O)O[C@H]2[C@H]1CC/C(Cn1cc(CNC(=O)Cc3cn(C(=O)c4ccc(Cl)cc4)c4ccc(OC)cc34)nn1)=C\\CC[C@@]1(C)O[C@@H]21"
  SYSTEM TESTED: "BT-549 breast"
  MEASUREMENT: 0.53
- MOLECULE: "O=C(CCCCCCSc1nc(-c2ccccc2)cc(-c2ccc(Cl)cc2)n1)NO"
  SYSTEM TESTED: "BT-549 breast"
  MEASUREMENT: 1.24

Proceed to the following item.
Request: Write down log10 of TGI measured for item COC(=O)N[C@H]1CCc2c(Br)c(OC)c(OC)c(OC)c2-c2ccc(SC)c(=O)cc21
Result: 1.17

====

system: HCC-2998 colon; assay: NCI tumour cell line growth inhibition, 48 h
READOUT KIND: TGI

For orientation, consider the following solved cases.
- MOLECULE: "COc1ccc(N[C@H](CS(=O)c2ccc(C)cc2)c2ccc(F)cc2)cc1 (stereo partly specified)"
  SYSTEM TESTED: "HCC-2998 colon"
  TGI: "> 100 µM"
- MOLECULE: "COc1cc2c(cc1OC)C(=O)/C(=C/c1cccc(OCC(=O)c3ccccc3)c1)C2"
  SYSTEM TESTED: "HCC-2998 colon"
  TGI: "> 100 µM"
- MOLECULE: "Cc1cc2c(c(C#N)c1C)NC(=O)CCC2=O"
  SYSTEM TESTED: "HCC-2998 colon"
  TGI: "> 100 µM"
- MOLECULE: "O=C(CN1CCN(c2ncccn2)CC1)Nc1ccc(Cl)cc1C(=O)c1ccccc1Cl"
  SYSTEM TESTED: "HCC-2998 colon"
  TGI: "> 100 µM"
- MOLECULE: "COc1ccc(Cl)cc1Nc1nc(C(F)(F)F)ccc1C(=O)N/N=C/c1c(Cl)cccc1Cl"
  SYSTEM TESTED: "HCC-2998 colon"
  TGI: "> 100 µM"

Request: Assign TGI to the following record: COC(=O)c1cc(C)ccc1CC(Cc1cccc(C)c1)C(=O)OC (stereo unspecified)
Result: > 100 µM

Request: For the molecule CCC(C)[C@H](NC(=O)N[C@H](C)c1ccccc1)C(=O)OC (stereo partly specified) , give its measured TGI value.
Result: > 100 µM

====

system: MALME-3M melanoma; assay: NCI tumour cell line growth inhibition, 48 h
READOUT KIND: TGI (µM)
Quick reminder: number only, in µM, skip the unit.

Below, each entry is followed by its recorded TGI result.
- COMPOUND: "N#Cc1c(-c2nc3ccccc3s2)c(=O)oc2cc(O)ccc12"
  MEASUREMENT: 95.9
- COMPOUND: "COc1ccc2cc(C(=O)/C=C/c3cc(OC)c(OC)c(OC)c3)ccc2c1"
  MEASUREMENT: 25.8

Request: Fill in reported TGI for this entry: C=C1C(=O)O[C@H]2[C@H]1CC/C(COC(=O)c1cc3cc(F)ccc3[nH]1)=C\CC[C@@]1(C)O[C@@H]21
Result: 3.53

Request: // fetch TGI given entry Cn1ccnc1S/C(=C\C=C(C#N)C#N)c1ccc(Cl)cc1
Result: 3.27

Request: Please report TGI for the following compound: O=C(NNc1nc(Cl)nc(N2CCN(C(c3ccccc3)c3ccccc3)CC2)n1)c1ccccc1
Result: 3.34

Request: Give the measured TGI for CN1CCN(CN2C(=O)C3C4C=CC(C3C2=O)C2C3C(=O)N(CN5CCN(C)CC5)C(=O)C3C42)CC1 (configuration not stated)
Result: 34.2

Request: Give me measured TGI, please, for this compound: COc1cc2c(cc1C[N+](C)(C)CSc1ccccc1)-c1ccccc1CC2
Result: 6.23

Request: Supply measured TGI of Cc1ccc([N+](=O)[O-])cc1S(=O)(=O)Nc1ccc(C2=NN(c3ccc([N+](=O)[O-])cc3[N+](=O)[O-])C(c3ccccc3)C2)cc1 (configuration not stated) in your reply.
Result: 41.6

Request: Give TGI for O=[N+]([O-])c1ccc(C(c2c[nH]c3ccccc23)c2c[nH]c3ccccc23)cc1
Result: 37.6

Request: Provide only the value of recorded TGI for Cc1ccc(CNc2c3ccccc3nc3ccccc23)cc1
Result: 3.18

Request: Specify reported TGI for the compound shown: COc1ccc2[nH]c(C(=O)N3CC(CCl)c4ccc(N)cc43)cc2c1 (configuration not stated)
Result: 0.302

====

system: HCT-116 colon; experiment: NCI tumour cell line growth inhibition, 48 h
READOUT KIND: TGI

Past entries and their recorded results:
- COMPOUND: "Cn1ccnc1Sc1ccc(/C=N/NC(=O)c2ccccc2O)cc1[N+](=O)[O-]"
  READOUT KIND: "TGI"
  MEASUREMENT: "> 100 µM"
- COMPOUND: "COc1ccc2[nH]c3c(c2c1)CCN(C)CC3"
  READOUT KIND: "TGI"
  MEASUREMENT: "> 100 µM"
- COMPOUND: "CC(=O)n1c(COS(C)(=O)=O)nc2ccccc21"
  READOUT KIND: "TGI"
  MEASUREMENT: "> 100 µM"

Request: For N#Cc1c(-c2nc3ccccc3s2)c(=O)oc2cc(O)ccc12 , write its TGI.
Result: > 100 µM

Request: Tell us which TGI value is on record for COc1ccc2c(c1)OC(c1cccnc1)C(c1ccccc1)C2=O (stereo unspecified)
Result: > 100 µM

Request: Give the measured TGI for Oc1ccc(/C=C\c2nnc(/C=C\c3ccc(O)c(O)c3)s2)cc1O
Result: 13 µM

Request: For the compound O=c1[nH]nc(Cc2ccccc2)n1/N=C/c1c[nH]c2ccccc12 , report TGI.
Result: > 100 µM

====

tested on: LOX IMVI melanoma; assay: NCI tumour cell line growth inhibition, 48 h; in the data active = GI50 below about 0.43 µM; inactive = the rest
Choose the fitting class; nothing outside 1 (yes) (active), 0 (no) (inactive) is accepted.

Record excerpt, results attached:
- COMPOUND: "COc1cc(-c2nn(-c3ccc(NC(=O)c4ccc(Cl)c(Cl)c4)cc3)cc2-c2ccncc2)ccc1Cl"
  QUALITATIVE LABEL: "0 (no)"
- COMPOUND: "CNC(=O)c1cc(OC2CCC(NC(=O)Nc3ccc(Cl)c(C(F)(F)F)c3)CC2)ccn1 (configuration not stated)"
  QUALITATIVE LABEL: "0 (no)"
- COMPOUND: "N=C1C(c2nc(-c3ccc(Br)cc3)cs2)=C(O)CN1Cc1cccnc1"
  QUALITATIVE LABEL: "0 (no)"
- COMPOUND: "O=C1NCc2ccc3c(-c4cccc(Cl)c4)c[nH]c3c21"
  QUALITATIVE LABEL: "1 (yes)"
- COMPOUND: "C[C@@H]1C[C@@H](O)[C@]2(O)O[C@@H]3C[C@@]4(C=O)[C@@H](CC[C@@H]5[C@@H]4CC[C@]4(C)[C@@H](C6=CC(=O)OC6)CC[C@]54O)C[C@H]3O[C@@H]2O1"
  QUALITATIVE LABEL: "1 (yes)"
- COMPOUND: "CC(=O)O[C@H]1CC[C@@]2(C)C(=CC[C@@H]3[C@@H]2CC[C@]2(C)C(c4cccnc4)=CC[C@@H]32)C1"
  QUALITATIVE LABEL: "0 (no)"

Request: Write down the call the test reported for this compound. Item: CCN(CC)CCOc1nc2ccc(OC)cc2c2c1-c1ccc(OC)cc1C2=O
Result: 0 (no)

Request: What call does the record list for C=C1CC2(OC1=O)C(=O)N(CCCCCCCN1C(=O)C3(CC(=C)C(=O)O3)c3ccccc31)c1ccccc12 (configuration not stated) ?
Result: 0 (no)

Request: Outcome logged for O=C(Nc1ccc(N2CCNCC2)cc1)c1[nH]ncc1Nc1ncnc2sc3c(c12)CCC3 in this assay:
Result: 1 (yes)

====

tested on: SNB-75 CNS; assay: NCI tumour cell line growth inhibition, 48 h
Where a SMILES comes first, the peptide text is derived from it. [ ]: non-standard residue; d: D form. The star is where a group is joined. Phe(4-NO2) = N[CH](Cc1ccc([N+](=O)[O-])cc1)C(=O)O; Boc = CC(C)(C)OC(=O)*; OBn = c1ccc(CO*)cc1
READOUT KIND: TGI (µM)
Express the result in µM but write the number alone.

Request: Supply measured TGI of COc1cc(C2CC(c3ccc(C)cc3)=NN2C=O)ccc1Oc1ccnc2cc(Cl)ccc12 (stereo not given) in your reply.
Result: 6.92

Request: State, in one line, measured TGI of COC(=O)/C=C\Sc1ccn(/C=C\C(=O)OC)c(=S)n1
Result: 43.1

Request: Please give measured TGI of the following entry: COc1ccc2nc3cc(Cl)ccc3c(NCCCCCC(=O)NC(COc3cnc4c(ccc5cccnc54)c3)COc3cnc4c(ccc5cccnc54)c3)c2c1
Result: 4.78

Request: State its TGI: COC(=O)CCC(NC(=O)OC(C)(C)C)C(=O)NC(Cc1ccc([N+](=O)[O-])cc1)C(=O)NCC(=O)OCc1ccccc1 (stereo not given) (Boc-Glu(OMe)-[Phe(4-NO2)]-Gly-OBn; configuration not given here)
Result: 48.4

Request: For O=[N+]([O-])c1cccc(-c2csc(N=Nc3c(O)[nH]c4ccccc34)n2)c1 , write its TGI.
Result: 56.1

Request: Give TGI for the following compound: C=C1C(=O)O[C@H]2[C@H]1CC/C(Cn1cc(CNC(=O)Cc3cn(C(=O)c4ccc(Cl)cc4)c4ccc(OC)cc34)nn1)=C\CC[C@@]1(C)O[C@@H]21
Result: 4.02

Request: For the compound CCCCCc1cc(OC(=O)c2c(O)cc(OC)cc2CCCCC)cc(O)c1C(=O)O , give its measured TGI value.
Result: 32.5

Request: Give a short answer stating reported TGI for Cc1ccc(C)n2c1nc1ccc3ccccc3c12 .
Result: 86

Request: # return recorded TGI for entry COc1cc2c(cc1C[N+](C)(C)CSc1ccccc1)-c1ccccc1CC2
Result: 6.17
